Ref: the supplement of paper PMC9732359

# ASSAY EXPLANATION: protein stability index of a GFP-peptide fusion (yeast GPS) (PSI 1-4); higher = more stable; sorted into four equal gates, so the index is relative within each strain
# TEST PARAMETERS: san1∆
Provide the recorded protein stability index for the entries that follow.

Given NNVVINFKDMSHVNKYG [PRP8] , respond with its protein stability index.
2.75

Given PLDSKDENFASVSPAGP [SNF2] , respond with its protein stability index.
3.15

Given ACSSSGRETILSNFNAD [SIR3] , respond with its protein stability index.
2.44

Given CLSDYTKKISNFNSSLH [YJL039C/NUP192] , respond with its protein stability index.
1.72

Given VSPNDNNSANNNAHSSD [YMR153W/NUP53] , respond with its protein stability index.
2.75

Given RKCETQKQWDDIAFVLN [YCS4] , respond with its protein stability index.
2.7

Given AKLHRISPKIWCAGAGT [PUP1] , respond with its protein stability index.
1.85

Given SVPEGTIVSNVEEKPGD [RPL2A] , respond with its protein stability index.
3.39

Given LERVKANAAKRAEAKAQ [RPL21A] , respond with its protein stability index.
3.36

Given ILLTSISRERDLFTHLW [SRP68] , respond with its protein stability index.
2.75

Given DHNGVPFPQYPAGMNET [ITC1] , respond with its protein stability index.
2.8

Given YVSQIRKHKRVSPNAAP [YAR002W/NUP60] , respond with its protein stability index.
2.53

Given VLNGQKIVVVRAEALNI [RPL16B] , respond with its protein stability index.
3.16

Given SLELQSFQKIPLSRINE [YML103C/NUP188] , respond with its protein stability index.
2.94

Given TPLSIKIMVAEWYLSHL [SRB8] , respond with its protein stability index.
2.18

Given DYGEEIKSGVAKLESLL [MTW1] , respond with its protein stability index.
3.37

Given KLDKQINMADRSLGLQQ [POP6] , respond with its protein stability index.
3.02

Given ENSTSNSKPEKSSDSND [YLR335W/NUP2] , respond with its protein stability index.
3.31

Given SSKPAFNLISNAGTEKE [YLR335W/NUP2] , respond with its protein stability index.
3.13

Given LSRAEYDSDSDSSVEDS [LIN1] , respond with its protein stability index.
2.87

Given SEDSAVFKATSSTDEES [FAS1] , respond with its protein stability index.
2.93

Given NPSVKQGEVGAVFIVPK [SWP82] , respond with its protein stability index.
3.28

Given IDDVQTIKVVKRSMDAE [RPP1] , respond with its protein stability index.
3.06

Given LDGELDFDDFLKLGLVE [RET1] , respond with its protein stability index.
2.81

Given QDYYIIGANIYQSPTIF [MED6] , respond with its protein stability index.
2.15

Given KIPLPEVHDLIGFITSG [POP1] , respond with its protein stability index.
1.88

Given IPNIPPNINTWQQVTAL [GAL11] , respond with its protein stability index.
2.9

Given LVHGIFGAKMSRTLILS [SIN4] , respond with its protein stability index.
1.36

Given LEKERSILDDIKLSLKD [SMC4] , respond with its protein stability index.
2.43

Given AFTCFCIKKIMENNEPA [SRB8] , respond with its protein stability index.
2.38
